- System: KM12
- testSummary: NCI tumour cell line growth inhibition, 48 h
Activity calls are given as the source filed them. Cut-off read from the data, not from the text of the source: active = GI50 up to about 1.1 µM and inactive = higher. Starred links: 1 amine or outer side, 2 acyl side, 3 side chain; linkers in the order of their positions; H or OH if unused. Non-standard residues stand in square brackets, D forms with d. Residues, ends and D or L forms follow the SMILES beside them. *: point of attachment. X47 = CCC(=O)CC1CC(C)CC(C(=O)[*:2])N1[*:1]; X46 = CCCCCCCCC(C)C(=O)*; Aib = CC(C)(N)C(=O)O; X48 = CC(CN(C)CCO)N*
Outcome codes: 1 (yes) for active, 0 (no) for inactive

- compound: "COc1ccc(N(c2ccc(C#N)cc2)c2ccc(C#N)cc2)cc1"
  category: "0 (no)"
- compound: "CCOC(=O)c1sc2nc(SC)nc3c2c1NC(=O)CN3c1cccc(F)c1"
  category: "0 (no)"
- compound: "N#CC[C@@H](O)COc1ccccc1"
  category: "0 (no)"
- compound: "CC(=O)C(C(C)=O)[C@H]1OC(C)(C)O[C@H]1[C@H]1COC(C)(C)O1"
  category: "0 (no)"
- compound: "C/C(=N\\NC(=O)CC(=O)Nc1ccc(Cl)cc1)c1cc2ccccc2oc1=O"
  category: "0 (no)"
- compound: "CSC1(SC2=NCCN2)SC2(NCCN2)S1"
  category: "0 (no)"
- compound: "O=C1Cc2c([nH]c3cc(Br)ccc23)-c2ccccc2N1"
  category: "0 (no)"
- compound: "CCCCCCCCC(C)C(=O)N1CCCC1C(=O)N1C(CC(=O)CC)CC(C)CC1C(=O)NC(C)C(=O)NC(C)(C)C(=O)NC(C)(C)C(=O)NC(C(=O)NC(C)C(=O)NC(C)(C)C(=O)NC(C)(C)C(=O)NC(C)CN(C)CCO)C(C)CC (configuration not stated) (X46-P[X47]A[Aib][Aib]IA[Aib][Aib]-X48; configuration not given here)"
  category: "1 (yes)"
- compound: "COc1ccc2c(c1)Cc1c(NCCN(C)C)ccc(C(=O)NCCCN(C)CCCNC(=O)c3ccc(NCCN(C)C)c4c3Nc3ccc(OC)cc3C4)c1N2"
  category: "1 (yes)"
- compound: "COc1cc(C(=C2SCCS2)c2nccc3cc(OC)c(OC)cc23)c([N+](=O)[O-])cc1OC"
  category: "0 (no)"
- compound: "O=C(CCc1ccccc1)CC1OC(=O)C(Cl)=C1Cl (configuration not stated)"
  category: "0 (no)"
- compound: "CC1=C(C(=O)CC(=O)C(=O)Nc2cccc(Cl)c2C)Sc2ccccc2N1"
  category: "0 (no)"
- compound: "Clc1cc2nsnc2c(Cl)n1"
  category: "0 (no)"
- compound: "CN(C)c1nc(-c2ccccc2)c(C(=O)c2c[nH]c3ccccc23)s1"
  category: "0 (no)"
- compound: "O=[N+]([O-])c1ccc(C(Cl)C(Cl)c2ccc(C(Cl)C(Cl)c3ccc([N+](=O)[O-])cc3[N+](=O)[O-])cc2)c([N+](=O)[O-])c1 (configuration not stated)"
  category: "1 (yes)"
- compound: "COC(=O)C1Cc2c([nH]c3ccccc23)C=N1 (configuration not stated)"
  category: "0 (no)"
- compound: "CCCCCCCCCCCCOCCCOP(=O)([O-])OCC[N+](C)(C)C"
  category: "0 (no)"
- compound: "COc1c(CCl)cc(-c2cc(=O)c3ccccc3s2)cc1CCl"
  category: "0 (no)"
- compound: "CN1CCOC1c1ccccc1O (configuration not stated)"
  category: "0 (no)"
- compound: "Cc1ccccc1C1=[N+]([O-])c2ccc(Cl)cc2C1=O"
  category: "0 (no)"
- compound: "NC(=O)NC(=O)C1CCCCC1C(=O)O (configuration not stated)"
  category: "0 (no)"
- compound: "CSc1ccc2c(cc1=O)[C@@H](NC(=O)c1cccc([N+](=O)[O-])c1)CCc1cc(O)c(O)c(O)c1-2"
  category: "0 (no)"
